Experiment: Blood-brain barrier permeability assay in mice (brain concentration after intragastric administration)
Assay type: in vivo
Conditions: 5 mg/kg, brain tissue homogenate
The entries below come with measured Concentrations in the brain values attached.

// Concentrations in the brain value for Cc1cc(N2CCc3cc(F)ccc3C2)cc(C)c1NC(=O)CC(C)(C)C [Xen-1101, reference compound] : 90.9 ng/g

Form field Concentrations in the brain, entry Cc1cc(N2CCCc3cc(OC(C)C(F)(F)F)ccc3C2)cc(C)c1NC(=O)CC(C)(C)C (stereo not shown) : 166.1 ng/g

Measured Concentrations in the brain, Cc1cc(N2CCCc3cc(OC(C)C)ccc3C2)cc(C)c1NC(=O)CC(C)(C)C : 127.5 ng/g

Form: compound = Cc1cc(N2CCCc3cc(OC(C)C)c(F)cc3C2)cc(C)c1NC(=O)CC(C)(C)C ; Concentrations in the brain = 257 ng/g
